Reference source for all entries: PubChem BioAssay AID1963973

Tested on: 883617-216-R-J1-PDC tumor spheroids, viability
Experiment: Anticancer human tumor 883617-216-R-J1-PDC patient-derived bladder carcinoma cell line growth inhibition [PI3K]
Conditions: compound 0.316 µM; stronger effect = lower value; spheroids with HUVEC and MSC
Source text: Combinatorial screen of targeted agents with the PI3K inhibitors inavolisib, alpelisib, duvelisib, and copanlisib in multi-cell type tumor spheroids A high-throughput screen of multi-cell type tumor spheroids was designed to identify active combinations of targeted small molecules and PI3K pathway inhibitors. […] Compounds. […] If the clinical Cmax for an agent had not been determined, the highest concentration tested was 10 microM. […]
observed property: viability, T/C

Here is how some compounds turned out for viability, T/C.
compound	viability, T/C
CC1(C)CCC(Nc2ncc(C(F)(F)F)c(-c3c[nH]c4c(P(C)(C)=O)c(C#N)ccc34)n2)CN1 (stereo unspecified)	28.7% [middle of 4 runs]
C[C@@H](NC(=O)c1ncnc(N)c1Cl)c1ncc(C(=O)Nc2cc(C(F)(F)F)c(Cl)cn2)s1	88.3% [middle of 4 runs]
C#Cc1c(F)ccc2cc(O)cc(-c3ncc4c(N5CC6CCC(C5)N6)nc(OCC56CCCN5CC(F)C6)nc4c3F)c12 (stereo unspecified)	100% [middle of 4 runs]
CCCS(=O)(=O)Nc1ccc(F)c(C(=O)c2c[nH]c3ncc(-c4ccc(Cl)cc4)cc23)c1F	97% [middle of 4 runs]
CNC(=O)c1ccc(N2C(=S)N(c3ccc(C#N)c(C(F)(F)F)c3)C(=O)C2(C)C)cc1F	99.7% [middle of 4 runs]

With those in mind, consider the next compound.
Check the records and state viability, T/C for CC(C)NCC(C(=O)N1CCN(c2ncnc3c2C(C)CC3O)CC1)c1ccc(Cl)cc1 (stereo unspecified)
68.3% [middle of 4 runs]

====

test system: 883617-216-R-J1-PDC tumor spheroids, viability; assay: Anticancer human tumor 883617-216-R-J1-PDC cell line growth inhibition [PI3K]; settings: second compound 0.1 µM; first compound 1 µM; stronger effect = lower value; spheroids with HUVEC and MSC;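 further: spheroids exposed to agents for 7 days before the viability read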
viability, T/C strictly less than 50% = 1. Otherwise -1.

molecule	label class
CCCS(=O)(=O)Nc1ccc(F)c(C(=O)c2c[nH]c3ncc(-c4ccc(Cl)cc4)cc23)c1F + CC(Nc1ccc2c(c1)OCCn1cc(N3C(=O)OCC3C(F)F)nc1-2)C(N)=O	1
C#Cc1c(F)ccc2cc(O)cc(-c3ncc4c(N5CC6CCC(C5)N6)nc(OCC56CCCN5CC(F)C6)nc4c3F)c12 (stereo not given) + CC(Nc1ncnc2nc[nH]c12)c1cc2cccc(Cl)c2c(=O)n1-c1ccccc1	-1
CC1(C)CCC(Nc2ncc(C(F)(F)F)c(-c3c[nH]c4c(P(C)(C)=O)c(C#N)ccc34)n2)CN1 (stereo not given) + Cc1nc(NC(=O)N2CCCC2C(N)=O)sc1-c1ccnc(C(C)(C)C(F)(F)F)c1	1
CC1(C)CCC(CN2CCN(c3ccc(C(=O)NS(=O)(=O)c4ccc(NCC5CCOCC5)c([N+](=O)[O-])c4)c(Oc4cnc5[nH]ccc5c4)c3)CC2)=C(c2ccc(Cl)cc2)C1 + Cc1nc(NC(=O)N2CCCC2C(N)=O)sc1-c1ccnc(C(C)(C)C(F)(F)F)c1	-1

Attention now shifts to the item below.
Item CC1(C)CCC(Nc2ncc(C(F)(F)F)c(-c3c[nH]c4c(P(C)(C)=O)c(C#N)ccc34)n2)CN1 (stereo not given) + CC(Nc1ncnc2nc[nH]c12)c1cc2cccc(Cl)c2c(=O)n1-c1ccccc1 : viability, T/C beneath 50%, strictly?
1
